target-entity: MCR-1 (Homo sapiens)
Construct: expressed in transfected cells; host or cells: HEK 293
assay-info: Melanocortin receptor binding assay, competition with 125I-HP 467, HEK 293 cells expressing hMCR-1
condition-parameters: displacement of 125I-HP 467 at 10 μM isoquinoline compound; first of duplicate
quantity-name: % Disp. MC-1 10 μM (%)

{"molecule": "NCCN1Cc2ccccc2C(CNC2CCCCC2)C1c1ccc(Cl)c(Cl)c1 (centres unmarked) [TRG 2405-26]", "val": 59.6}
{"molecule": "CNC(CN)CN1Cc2ccccc2C(CNC2CCCCC2)C1c1ccc(F)c(F)c1F (centres unmarked) [TRG 2405-96]", "val": 44.5}
{"molecule": "CNC(CN)CN1Cc2ccccc2C(CNC2CCCCC2)C1c1cccc2c1OCO2 (centres unmarked) [TRG 2405-98]", "val": 20.1}
{"molecule": "CNC(CN)CN1Cc2ccccc2C(CNC2CCCCC2)C1c1cc(Cl)cc(Cl)c1 (mixture of isomers) [TRG 2405-120]", "val": 52.4}

I: NCCN1Cc2ccccc2C(CNC2CCCCC2)C1c1cc(Cl)cc(Cl)c1 (centres unmarked) [TRG 2405-30]
II: NCCN1Cc2ccccc2C(CNC2CCCCC2)C1c1ccccc1F (centres unmarked) [TRG 2405-16]
Incoming: Compare reported % Disp. MC-1 10 μM values for I and II . Which is lower? Kindly give the label for the entry you pick.
Outgoing: II

* * *

target-entity: MCR-4 (Homo sapiens)
Construct: expressed in transfected cells; host or cells: HEK 293
assay-info: Melanocortin receptor binding assay, competition with 125I-HP 467, HEK 293 cells expressing hMCR-4
condition-parameters: competition with 125I-HP 467, HEK 293 cells expressing MCR-4; read-out: MC-4 IC50
pIC50: −log10 of the molar value.
quantity-name: pIC50

{"compound": "CNC(CN)CCCCN1Cc2ccccc2C(CNC2CCCCC2)C1c1ccc(NCCOC)cc1 (stereo not shown)", "val": 4.56}

a: NCC(CCCN1Cc2ccccc2C(CN)C1c1ccc(-c2ccccc2)cc1)NCc1ccccc1 (stereo not shown)
b: CCNc1ccc(C2C(CN)c3ccccc3CN2CCCCC(CN)NCCc2ccccc2)cc1 (stereo not shown)
Incoming: Of a and b , whose reported pIC50 is the larger number? Your answer should be the label of the entry you select.
Outgoing: a

* * *

target-entity: MCR-1 (Homo sapiens)
Construct: expressed in transfected cells; host or cells: HEK 293
assay-info: Melanocortin receptor binding assay, competition with 125I-HP 467, HEK 293 cells expressing hMCR-1
condition-parameters: displacement of 125I-HP 467 at 10 μM isoquinoline compound; first of duplicate
quantity-name: % Disp. MC-1 10 μM (%)

{"compound": "NCCN1Cc2ccccc2C(CNC2CCCCC2)C1c1ccnc2ccccc12 (stereo not drawn) [TRG 2405-75]", "quantity-name": "% Disp. MC-1 10 μM", "val": 38.9}
{"compound": "NCCN1Cc2ccccc2C(CNC2CCCCC2)C1c1ccc(-c2ccccc2)cc1 (stereo not drawn) [TRG 2405-61]", "quantity-name": "% Disp. MC-1 10 μM", "val": 54.7}
{"compound": "NCCN1Cc2ccccc2C(CNC2CCCCC2)C1c1cccc(CN)c1 (stereo not drawn) [TRG 2405-39]", "quantity-name": "% Disp. MC-1 10 μM", "val": 23.2}
{"compound": "CNC(CN)CN1Cc2ccccc2C(CNC2CCCCC2)C1c1ccccc1Br (stereo not drawn) [TRG 2405-102]", "quantity-name": "% Disp. MC-1 10 μM", "val": 44.7}
{"compound": "CNC(CN)CN1Cc2ccccc2C(CNC2CCCCC2)C1c1cccc2ccccc12 (stereo not drawn) [TRG 2405-95]", "quantity-name": "% Disp. MC-1 10 μM", "val": 45.6}
{"compound": "CNC(CN)CN1Cc2ccccc2C(CNC2CCCCC2)C1c1cccc(OC)c1 (stereo not drawn) [TRG 2405-135]", "quantity-name": "% Disp. MC-1 10 μM", "val": 43.9}

a: CNC(CN)CN1Cc2ccccc2C(CNC2CCCCC2)C1c1ccnc2ccccc12 (stereo not drawn) [TRG 2405-165]
b: NCCN1Cc2ccccc2C(CNC2CCCCC2)C1c1ccc[nH]1 (stereo not drawn) [TRG 2405-85]
c: NCCN1Cc2ccccc2C(CNC2CCCCC2)C1c1ccc(O)cc1 (stereo not drawn) [TRG 2405-66]
d: NCCN1Cc2ccccc2C(CNC2CCCCC2)C1c1cccc(F)c1 (stereo not drawn) [TRG 2405-41]
Incoming: Arrange these compounds by their % Disp. MC-1 10 μM, starting with the largest number. To answer, arrange all of the labels according to the requested order.
Outgoing: c, b, a, d
(c: 81.6%, b: 57.1%, a: 37.3%, d: 19.6%)

* * *

target-entity: MCR-4 (Homo sapiens, UniProt P32245)
Construct: expressed in transfected cells; host or cells: HEK 293
Sequence (P32245 whole entry): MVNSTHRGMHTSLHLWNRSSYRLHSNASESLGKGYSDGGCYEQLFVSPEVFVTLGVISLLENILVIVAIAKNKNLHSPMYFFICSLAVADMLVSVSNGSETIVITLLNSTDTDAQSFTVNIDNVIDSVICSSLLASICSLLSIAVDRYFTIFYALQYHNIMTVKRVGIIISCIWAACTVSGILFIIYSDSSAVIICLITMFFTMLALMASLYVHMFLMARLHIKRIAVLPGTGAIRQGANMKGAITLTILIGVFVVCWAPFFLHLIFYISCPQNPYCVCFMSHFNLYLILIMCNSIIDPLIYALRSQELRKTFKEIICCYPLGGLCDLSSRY
assay-info: Melanocortin receptor binding assay, competition with 125I-HP 467, HEK 293 cells expressing hMCR-4
condition-parameters: TRG 2406 and TRG 2407 libraries; inhibition of binding of 125I-HP 467; read-out: MC-4 IC50
pIC50: −log10 of the molar value.
quantity-name: pIC50

Recorded results for 5 molecules are shown here.
{"molecule": "CNC(CN)CCCCN1Cc2ccccc2C(CNCc2ccccc2)C1c1ccc(Cl)cc1Cl (stereo not shown)", "pIC50": 5.41}
{"molecule": "CCNc1ccc(C2C(CNCc3ccccc3C(F)(F)F)c3ccccc3CN2CCCCC(CN)NC)cc1 (stereo not shown)", "pIC50": 6.10}
{"molecule": "CNC(CN)CCCCN1Cc2ccccc2C(CNC2CCCCCC2)C1c1ccc(Cl)cc1Cl (stereo not shown)", "pIC50": 6.11}
{"molecule": "CNC(CN)CCCCN1Cc2ccccc2C(CN(C)Cc2ccccc2)C1c1ccc(Cl)cc1Cl (stereo not shown)", "pIC50": 5.21}
{"molecule": "CNC(CN)CCCCN1Cc2ccccc2C(CNCc2ccc(C(F)(F)F)cc2)C1c1ccc(Cl)cc1Cl (stereo not shown)", "pIC50": 5.46}

P: NCCN1Cc2ccccc2C(CNCc2ccccc2O)C1c1ccc(Oc2ccccc2)cc1 (mixture of isomers)
Q: CNC(CN)CCCCN1Cc2ccccc2C(CNN2CCCCC2)C1c1ccc(Cl)cc1Cl (mixture of isomers)
Incoming: Between these two entries, P and Q , state which has the higher pIC50. # respond with the chosen item's label
Outgoing: Q

A: CNC(CN)CCCCN1Cc2ccccc2C(CNCc2ccc(Cl)cc2)C1c1ccc(Cl)cc1Cl (stereo not shown)
B: CNC(CN)CCCCN1Cc2ccccc2C(CNc2ccccc2)C1c1ccc(Cl)cc1Cl (mixture of isomers)
C: CNC(CN)CN1Cc2ccccc2C(CNCc2ccccc2O)C1c1cccc(Oc2ccc(OC)cc2)c1 (stereo not shown)
D: CNC(CN)CCCCN1Cc2ccccc2C(CNC2CCCC2)C1c1ccc(Cl)cc1Cl (stereo not shown)
E: CCNc1ccc(C2C(CNc3ccccc3)c3ccccc3CN2CCCCC(CN)NC)cc1 (stereo not shown)
Incoming: Hello, I need these entries ordered by pIC50, highest reading first. Thanks! Please list the labels according to the requested order.
Outgoing: D, C, A, B, E
(D: 6.28, C: 5.87, A: 5.55, B: 4.97, E: 4.77)

P: CCN(CC)CC1c2ccccc2CN(CCCCC(CN)NC)C1c1ccc(Cl)cc1Cl (stereo not shown)
Q: CCNc1ccc(C2C(CNc3cccc(Cl)c3)c3ccccc3CN2CCCCC(CN)NC)cc1 (stereo not shown)
R: CCOc1cccc(NCC2c3ccccc3CN(CCCCC(CN)NC)C2c2ccc(Cl)cc2Cl)c1 (stereo not shown)
Incoming: Returns the items ordered by pIC50, from maximum to minimum. Output spec: labels arranged per the requested ranking.
Outgoing: P, R, Q
(P: 5.47, R: 5.16, Q: 4.96)

* * *

target-entity: MCR-1 (Homo sapiens, UniProt Q01726)
Construct: expressed in transfected cells; host or cells: HEK 293
Sequence (Q01726 whole entry): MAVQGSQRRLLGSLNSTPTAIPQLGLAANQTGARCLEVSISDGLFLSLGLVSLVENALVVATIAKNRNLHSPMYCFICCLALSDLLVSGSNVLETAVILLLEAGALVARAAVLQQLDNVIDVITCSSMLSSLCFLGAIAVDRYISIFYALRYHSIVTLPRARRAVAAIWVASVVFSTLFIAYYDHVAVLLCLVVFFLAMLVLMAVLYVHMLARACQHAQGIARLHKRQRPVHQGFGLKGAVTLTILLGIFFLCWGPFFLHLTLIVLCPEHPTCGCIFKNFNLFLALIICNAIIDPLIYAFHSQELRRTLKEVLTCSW
assay-info: Melanocortin receptor binding assay, competition with 125I-HP 467, HEK 293 cells expressing hMCR-1
condition-parameters: inhibition of binding of 125I-HP 467, HEK 293 cells expressing MCR-1; read-out: MC-1 IC50
pIC50: −log10 of the molar value.
quantity-name: pIC50

These solved cases illustrate the format of a correct answer.
{"molecule": "COc1cccc(CCNCC2c3ccccc3CN(CCCCC(CN)NCc3ccc(C)cc3)C2c2cc(C(F)(F)F)cc(C(F)(F)F)c2)c1 (stereo not shown)", "pIC50": 5.51}
{"molecule": "COc1ccc(CCNCC2c3ccccc3CN(CCCCC(CN)NCc3ccc(C)cc3)C2c2cc(C(F)(F)F)cc(C(F)(F)F)c2)cc1 (stereo not shown)", "pIC50": 5.59}
{"molecule": "COc1ccc(CCNCC2c3ccccc3CN(CCCCC(CN)NCc3ccc(Br)cc3)C2c2cc(C(F)(F)F)cc(C(F)(F)F)c2)cc1 (stereo not shown)", "pIC50": 5.36}

I: CCNc1ccc(C2C(CN)c3ccccc3CN2CCCC(CN)NCCc2ccccc2)cc1 (stereo not shown) [TRG 2413-11]
II: CCCCCc1ccc(C2C(CNCCc3ccccc3)c3ccccc3CN2CCCC(CN)NC)cc1 (stereo not shown)
Incoming: Of I and II , which one carries the higher reported pIC50? Could you answer with the label of the item you picked?
Outgoing: I

P: CCNc1ccc(C2C(CN)c3ccccc3CN2CCCC(CN)NCC2CC2CN(CC)CC)cc1 (stereo not shown)
Q: CCCCCNc1ccc(C2C(CNCCc3ccccc3)c3ccccc3CN2CCCCC(CN)NC)cc1 (stereo not shown)
Incoming: For the two items P and Q , which reports the higher pIC50 value? Please identify the chosen entry by its label.
Outgoing: P
(P: 7.40, Q: 6.42)
